Reported MIC Escherichia coli (GC 4560) values are given for each entry in this list.
Test system: Escherichia coli
ASSAY PROCEDURE: In vitro antibacterial evaluation: minimum inhibitory concentration (MIC), broth dilution method
Format: cell-based
RECORDED CONDITIONS: strain GC 4560
VALUE KIND: MIC Escherichia coli (GC 4560)

compound="CC(c1ccccc1)C1NC(=O)CNC(=O)C(CO)NC(=O)C(C(O)C2CN(Cc3ccccc3)C(=NCc3ccccc3)N2C2OC(CO)C(O)C(O)C2O)NC(=O)C(C(O)C2CN(Cc3ccccc3)C(=NCc3ccccc3)N2Cc2ccccc2)NC(=O)C(Cc2ccc(OC3OC(CO)C(OC4OC5COC6(OC5C(O)C4O)C4CC5CC(C4)CC6C5)C(O)C3O)cc2)NC1=O (stereo not drawn) [Example 79]" measured_on="Escherichia coli" reported="2 µg/mL"
compound="CC(C)=CCCC(C)=CCN=C1NCC(C(O)C2NC(=O)C(C(O)C3CNC(=N)N3)NC(=O)C(Cc3ccc(OC4OC(CO)C(OC5OC6COC7(OC6C(O)C5O)C5CC6CC(C5)CC7C6)C(O)C4O)cc3)NC(=O)C(C(C)c3ccccc3)NC(=O)CNC(=O)C(CO)NC2=O)N1C1OC(CO)C(O)C(O)C1O (stereo not drawn) [Example 82]" measured_on="Escherichia coli" reported="4 µg/mL"
compound="CCCCCC(=O)OCC1OC(Oc2ccc(CC3NC(=O)C(C(C)c4ccccc4)NC(=O)CNC(=O)C(CO)NC(=O)C(C(O)C4CNC(=N)N4C4OC(CO)C(O)C(O)C4O)NC(=O)C(C(O)C4CNC(=N)N4)NC3=O)cc2)C(O)C(O)C1OC1OC(CO)C(O)C(O)C1O (stereo not drawn) [Example 95a]" measured_on="Escherichia coli" reported="2 µg/mL"
compound="CC(c1ccccc1)C1NC(=O)CNC(=O)C(CO)NC(=O)C(C(O)C2CN(c3nc4ccccc4s3)C(=N)N2C2OC(CO)C(O)C(O)C2O)NC(=O)C(C(O)C2CNC(=Nc3nc4ccccc4s3)N2)NC(=O)C(Cc2ccc(OC3OC(CO)C(OC4OC(CO)C(O)C(O)C4O)C(O)C3O)cc2)NC1=O (stereo not drawn) [Example 94]" measured_on="Escherichia coli" reported="64 µg/mL"
compound="CC(c1ccccc1)C1NC(=O)CNC(=O)C(CO)NC(=O)C(C(O)C2CNC(=N)N2C2OC(CO)C(O)C(O)C2O)NC(=O)C(C(O)C2CNC(=N)N2)NC(=O)C(Cc2ccc(OC3OC(COC(=O)Cc4ccccc4)C(OC4OC(CO)C(O)C(O)C4O)C(O)C3O)cc2)NC1=O (stereo not drawn) [Example 98b]" measured_on="Escherichia coli" reported="2 µg/mL"
compound="CCCCCCC(=O)OCC1OC(Oc2ccc(CC3NC(=O)C(C(C)c4ccccc4)NC(=O)CNC(=O)C(CO)NC(=O)C(C(O)C4CNC(=N)N4C4OC(CO)C(O)C(O)C4O)NC(=O)C(C(O)C4CNC(=N)N4)NC3=O)cc2)C(O)C(O)C1OC1OC(CO)C(O)C(O)C1O (stereo not drawn) [Example 97a]" measured_on="Escherichia coli" reported="1 µg/mL"
compound="CCCCCCCN1CC(C(O)C2NC(=O)C(C(O)C3CNC(=N)N3)NC(=O)C(Cc3ccc(OC4OC(CO)C(OC5OC6COC7(OC6C(O)C5O)C5CC6CC(C5)CC7C6)C(O)C4O)cc3)NC(=O)C(C(C)c3ccccc3)NC(=O)CNC(=O)C(CO)NC2=O)N(C2OC(CO)C(O)C(O)C2O)C1=N (stereo not drawn) [Example 83]" measured_on="Escherichia coli" reported="2 µg/mL"
compound="CC(c1ccccc1)C1NC(=O)CNC(=O)C(CO)NC(=O)C(C(O)C2CN(Cc3ccccc3-c3ccccc3)C(=N)N2C2OC(CO)C(O)C(O)C2O)NC(=O)C(C(O)C2CNC(=N)N2)NC(=O)C(Cc2ccc(OC3OC(CO)C(OC4OC(CO)C(O)C(O)C4O)C(O)C3O)cc2)NC1=O (stereo not drawn) [Example 65]" measured_on="Escherichia coli" reported="32 µg/mL"
compound="CC(c1ccccc1)C1NC(=O)CNC(=O)C(CO)NC(=O)C(C(O)C2CN(Cc3ccccc3)C(=NCc3ccccc3)N2C2OC(CO)C(O)C(O)C2O)NC(=O)C(C(O)C2CN(Cc3ccccc3)C(=NCc3ccccc3)N2Cc2ccccc2)NC(=O)C(Cc2ccc(OC3OC(CO)C(OC4OC(CO)C(O)C(O)C4O)C(O)C3O)cc2)NC1=O (stereo not drawn) [Example 62]" measured_on="Escherichia coli" reported="4 µg/mL"
